The origin of these recorded values is patent US20110306639A1.

- Test system: asparagus caterpillar
- experimental_parameters: in vivo
Measured mortality(%) asparagus caterpillar (500 μg/mL) accompanies every entry in the list below.
Give the quantity in %, number only.

Entry CCC=NNC(=N[N+](=O)[O-])NCC [Compound 9] ; mortality(%) asparagus caterpillar (500 μg/mL) = 20

The compound C#CCNC(=N[N+](=O)[O-])NN=Cc1ccccc1Cl [Compound 94] showed mortality(%) asparagus caterpillar (500 μg/mL) equal to 60

Measured mortality(%) asparagus caterpillar (500 μg/mL) of COc1ccc(C=NNC(=N[N+](=O)[O-])NCc2ccc(Cl)nc2)cc1 [Compound 112] : 90

Note to self: mortality(%) asparagus caterpillar (500 μg/mL) recorded for COc1ccccc1C=NNC(=N[N+](=O)[O-])NCc1ccccc1 [Compound 75] was 90

Recorded result, CC=CC=NNC(=N[N+](=O)[O-])NC [Compound 31] , mortality(%) asparagus caterpillar (500 μg/mL): 10

For CCCCC=NNC(=N[N+](=O)[O-])NCCCC [Compound 52] the compound record lists mortality(%) asparagus caterpillar (500 μg/mL) as 60

Query C=CC=NNC(=N[N+](=O)[O-])NCC=C [Compound 42] yields mortality(%) asparagus caterpillar (500 μg/mL) of 0

###

- Test system: Helicoverpa armigera
- experimental_parameters: in vivo
observed_property: mortality(%) Helicoverpa armigera (500 μg/mL)
Provide the measurement as a number trailed by its unit.

Illustrative cases are given below, each with its answer.
1) CCOc1ccc(C=NNC(=N[N+](=O)[O-])NC)cc1OC [Compound 95] = 40%
2) CCNC(=N[N+](=O)[O-])NN=CC=C(C)CCC=C(C)C [Compound 17] = 40%
3) O=[N+]([O-])N=C(NCc1ccc(Cl)nc1)NN=Cc1ccc(Cl)cc1 [Compound 108] = 50%
4) C=CCNC(=N[N+](=O)[O-])NN=Cc1ccc(OCC)c(OC)c1 [Compound 99] = 50%

Briefly, mortality(%) Helicoverpa armigera (500 μg/mL) measured for CCCCCCC=NNC(=N[N+](=O)[O-])NCc1ccc(Cl)nc1 [Compound 50] : 20%

###

- System: Helicoverpa armigera
- experimental_parameters: 500 μg/mL; 48 hours
Threshold 20%. mortality(%) Helicoverpa armigera (500 μg/mL) below it: 1. mortality(%) Helicoverpa armigera (500 μg/mL) at it or above: 0.

Answered cases to consult:
1) CCCCC=NNC(=N[N+](=O)[O-])NCc1ccccc1 = 1
2) CCCNC(=N[N+](=O)[O-])NN=Cc1ccccc1OC = 0
3) C#CCNC(=N[N+](=O)[O-])NN=CC(C)C = 0

## Input Hi there! Is mortality(%) Helicoverpa armigera (500 μg/mL) for CC=CC=NNC(=N[N+](=O)[O-])NCc1ccccc1 below 20%, do you know?
## Output 0

###

// values below are reported mortality(%) myzus persicae (600 μg/mL)
- Test system: myzus persicae
- experimental_parameters: in vivo
State just the number; it will be interpreted in %.

A selection of reference data follows.
1. CCCCCCC=NNC(=N[N+](=O)[O-])NCc1ccccc1 = 28.6
2. C#CCNC(=N[N+](=O)[O-])NN=CCCC = 11.4
3. O=[N+]([O-])N=C(NCc1ccccc1)NN=Cc1ccccc1Cl = 45.8
4. CCCNC(=N[N+](=O)[O-])NN=Cc1ccccc1Cl = 41.2
5. CCCCNC(=N[N+](=O)[O-])NN=Cc1ccc(OCC)c(OC)c1 = 35.8

Measured mortality(%) myzus persicae (600 μg/mL), C=CCNC(=N[N+](=O)[O-])NN=Cc1ccccc1OC : 3.4

Value of mortality(%) myzus persicae (600 μg/mL) reported for the compound CC(C)=CCCC(C)=CC=NNC(=N[N+](=O)[O-])NCc1ccc(Cl)nc1 is 19.8

// mortality(%) myzus persicae (600 μg/mL) lookup, compound = CCCCC=NNC(=N[N+](=O)[O-])NCc1ccc(Cl)nc1 , result: 100

The compound identified as CCC=NNC(=N[N+](=O)[O-])NCC registered its mortality(%) myzus persicae (600 μg/mL) at 54.2

# mortality(%) myzus persicae (600 μg/mL) of C=CCNC(=N[N+](=O)[O-])NN=CCCC = 65.1

###

- System: myzus persicae
- experimental_parameters: in vivo
Let's look at some molecules and their measured mortality(%) myzus persicae (600 μg/mL).

# count of solved cases: 3
1. CCCCC=NNC(=N[N+](=O)[O-])NCCCC [Compound 52] = 81.0%
2. C=CCNC(=N[N+](=O)[O-])NN=CC=CC [Compound 35] = 56.7%
3. C#CCNC(=N[N+](=O)[O-])NN=CC=C(C)CCC=C(C)C [Compound 21] = 12.8%

For record C=CC=NNC(=N[N+](=O)[O-])NCc1ccccc1 [Compound 44] the listed mortality(%) myzus persicae (600 μg/mL) is 45.8%

Recorded result, C=CCNC(=N[N+](=O)[O-])NN=CC=C(C)CCC=C(C)C [Compound 20] , mortality(%) myzus persicae (600 μg/mL): 5.2%

###

- Test system: myzus persicae
- experimental_parameters: in vivo
Classify as follows. Reported mortality(%) myzus persicae (600 μg/mL) greater than or equal to 70%: Condition met. Reported mortality(%) myzus persicae (600 μg/mL) below: Condition not met.

Example cases with answers are listed next.
1. CC(C)C=NNC(=N[N+](=O)[O-])NCc1ccc(Cl)nc1 = Condition met
2. O=[N+]([O-])N=C(NCc1ccc(Cl)nc1)NN=Cc1ccc(F)cc1 = Condition met
3. CCCCNC(=N[N+](=O)[O-])NN=CC(C)C = Condition not met
4. C#CCNC(=N[N+](=O)[O-])NN=CC(C)C = Condition not met

Then this compound:
## Input Could you verify whether the entry CNC(=N[N+](=O)[O-])NN=CC(C)C shows mortality(%) myzus persicae (600 μg/mL) of no less than 70%?
## Output Condition not met

###

mortality(%) asparagus caterpillar (500 μg/mL) values by entry
- Test system: asparagus caterpillar
- experimental_parameters: in vivo
Record the result as number plus unit.

The compound CN(C)c1ccc(C=NNC(=N[N+](=O)[O-])NCc2ccccc2)cc1 on asparagus caterpillar: mortality(%) asparagus caterpillar (500 μg/mL) was 90%

Simply: C#CCNC(=N[N+](=O)[O-])NN=CC=CC , asparagus caterpillar, mortality(%) asparagus caterpillar (500 μg/mL) = 50%

Hey, asparagus caterpillar data for C#CCNC(=N[N+](=O)[O-])NN=CCC : mortality(%) asparagus caterpillar (500 μg/mL) came out at 0%

Summary: CC(C)C=NNC(=N[N+](=O)[O-])NCc1ccccc1 , asparagus caterpillar, mortality(%) asparagus caterpillar (500 μg/mL) = 50%

# lookup: O=[N+]([O-])N=C(NCc1ccc(Cl)nc1)NN=Cc1ccco1 on asparagus caterpillar, mortality(%) asparagus caterpillar (500 μg/mL) = 80%

The reported mortality(%) asparagus caterpillar (500 μg/mL) value, asparagus caterpillar, for C=CC=NNC(=N[N+](=O)[O-])NCCC reads 20%

Note to self: mortality(%) asparagus caterpillar (500 μg/mL) of CCCCCCC=NNC(=N[N+](=O)[O-])NCCC with asparagus caterpillar was 20%

Simply: O=[N+]([O-])N=C(NCc1ccccc1)NN=Cc1ccccc1Cl , asparagus caterpillar, mortality(%) asparagus caterpillar (500 μg/mL) = 70%

Query CCCCC=NNC(=N[N+](=O)[O-])NCc1ccccc1 on asparagus caterpillar; mortality(%) asparagus caterpillar (500 μg/mL) returned: 30%

The recorded mortality(%) asparagus caterpillar (500 μg/mL) with asparagus caterpillar for O=[N+]([O-])N=C(NCc1ccc(Cl)nc1)NN=Cc1ccc(F)cc1 was 70%

Let me check: C=CCNC(=N[N+](=O)[O-])NN=CCCCC , system asparagus caterpillar, measured mortality(%) asparagus caterpillar (500 μg/mL) is 80%

###

Reported mortality(%) myzus persicae (600 μg/mL) values for a set of compounds
- Test system: myzus persicae
- experimental_parameters: in vivo

# example entries with known answers
1. C#CCNC(=N[N+](=O)[O-])NN=Cc1ccccc1Cl [Compound 94] = 31.2%
2. CC=CC=NNC(=N[N+](=O)[O-])NCCC [Compound 33] = 19.5%
3. C=CCNC(=N[N+](=O)[O-])NN=Cc1ccc(N(C)C)cc1 [Compound 72] = 23.6%

The compound listed as CCCNC(=N[N+](=O)[O-])NN=Cc1ccccc1OC [Compound 73] shows mortality(%) myzus persicae (600 μg/mL) equal to 20.2%

For CCCNC(=N[N+](=O)[O-])NN=Cc1ccc(OCC)c(OC)c1 [Compound 96] the compound record lists mortality(%) myzus persicae (600 μg/mL) as 73.4%

Lab note: measured mortality(%) myzus persicae (600 μg/mL) of CCNC(=N[N+](=O)[O-])NN=CC=C(C)CCC=C(C)C [Compound 17] was 19.8%

mortality(%) myzus persicae (600 μg/mL) in this record for C=CCNC(=N[N+](=O)[O-])NN=Cc1ccc(OCC)c(OC)c1 [Compound 99] : 45.8%

GET /value?item= CC(C)C=NNC(=N[N+](=O)[O-])NCc1ccccc1 [Compound 7] &field=mortality(%) myzus persicae (600 μg/mL) returns 18.4%

Lookup result for C=CCNC(=N[N+](=O)[O-])NN=CCCCCCC [Compound 47] ; measured mortality(%) myzus persicae (600 μg/mL): 23.7%
